Values from patent US5188937A

The entries below are paired with their reported Ki.
- ASSAYED SYSTEM: Rabbit Liver Esterase (E.C. 3.1.1.1) (Oryctolagus cuniculus)
- Construct: from tissue; host or cells: rabbit liver
- Sequence (P12337 19-565): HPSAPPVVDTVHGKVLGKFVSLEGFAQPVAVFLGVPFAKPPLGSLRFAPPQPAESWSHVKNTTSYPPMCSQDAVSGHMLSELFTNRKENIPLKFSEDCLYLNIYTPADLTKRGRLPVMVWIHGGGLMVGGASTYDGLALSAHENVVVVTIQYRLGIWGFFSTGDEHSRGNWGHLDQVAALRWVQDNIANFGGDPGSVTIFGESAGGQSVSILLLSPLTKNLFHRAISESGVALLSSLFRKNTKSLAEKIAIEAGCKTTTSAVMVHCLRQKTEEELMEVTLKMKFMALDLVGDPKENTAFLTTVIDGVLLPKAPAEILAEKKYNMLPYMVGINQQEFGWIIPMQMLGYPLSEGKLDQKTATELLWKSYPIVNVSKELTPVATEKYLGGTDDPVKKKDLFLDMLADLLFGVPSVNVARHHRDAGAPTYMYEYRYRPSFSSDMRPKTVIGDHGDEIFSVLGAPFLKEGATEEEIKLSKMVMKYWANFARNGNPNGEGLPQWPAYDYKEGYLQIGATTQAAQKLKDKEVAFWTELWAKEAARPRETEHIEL
- PROTOCOL NOTES: Inhibition constants, esterase hydrolysis of o-nitrophenyl butyrate followed spectrophotometrically
- Assay type: biochemical
- EXPERIMENTAL CONDITIONS: RLE; 50 mM Tris pH=8.0; enzyme and inhibitor incubated at ambient temperature for 20 minutes

| STRUCTURE AS SMILES | Ki / µM |
| --- | --- |
| O=C(Cc1ccc(O)cc1)C(F)(F)F | 2 |
| O=C(CCc1ccc(O)cc1)C(F)(F)C(F)(F)F | 0.8 |
| O=C(CCc1ccc(O)cc1)C(F)(F)F | 0.02 |
| O=C(CCCc1ccc(O)cc1)C(F)(F)F | 0.01 |
| O=C(CCc1cccc(O)c1)C(F)(F)F | 0.1 |
| O=C(CCCc1cccc(O)c1)C(F)(F)F | 0.17 |
| O=C(CCCCc1ccc(O)cc1)C(F)(F)F | 0.02 |
